molecular target: Human cGAS amino acids 155-522 (Homo sapiens (Human), UniProt Q8N884); assay: cGAS biochemical activity assay (ATP remaining, Kinase-Glo Max luminescence); details: human cGAS 155-522, ATP remaining (Kinase-Glo Max); read-out: cGAS IC50
Sequence (Q8N884 157-522): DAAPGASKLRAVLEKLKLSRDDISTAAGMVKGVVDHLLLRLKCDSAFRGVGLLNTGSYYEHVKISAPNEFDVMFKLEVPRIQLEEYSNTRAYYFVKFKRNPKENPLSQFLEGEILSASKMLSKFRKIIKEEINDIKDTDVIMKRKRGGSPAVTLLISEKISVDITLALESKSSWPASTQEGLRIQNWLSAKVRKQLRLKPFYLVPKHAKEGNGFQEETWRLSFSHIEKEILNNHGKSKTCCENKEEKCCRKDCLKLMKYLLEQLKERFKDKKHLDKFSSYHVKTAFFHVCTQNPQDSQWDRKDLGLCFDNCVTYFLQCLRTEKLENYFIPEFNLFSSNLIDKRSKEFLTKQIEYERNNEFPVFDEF
Reported endpoint: IC50

Below are some compounds; for each one, tell me its IC50.
1. Cc1[nH]c2c(-c3ccccc3)c(C(F)(F)F)nn2c(=O)c1-c1nnc(N)o1 [Compound D1075]
2. COc1cccc2oc(-c3c(C(=O)O)[nH]c4c(-c5ccccc5)c(C#N)nn4c3=O)nc12 [Compound C1249]
3. COc1cccc2oc(-c3c(C(=O)NCC(=O)O)[nH]c4c(-c5ccccc5)c(C(F)(F)F)nn4c3=O)nc12 [Compound C1195]
4. CNC(=O)COCc1[nH]c2c(-c3ccccc3)c(C(F)(F)F)nn2c(=O)c1-c1nc2c(OC)cccc2o1 [Compound C1199]
5. Cc1[nH]c2c(-c3ccccc3)c(C(F)(F)F)nn2c(=O)c1C(=O)Nc1ccnn1C [Compound A1078]
6. COc1ccc(CO)c2oc(-c3c(C)[nH]c4c(-c5ccccc5)c(C(F)(F)F)nn4c3=O)nc12 [Compound C1224]

Response:
1: 20 to 250 µM; 2: < 20 µM; 3: < 20 µM; 4: 20 to 250 µM; 5: 20 to 250 µM; 6: < 20 µM
